experimental-target: HIV Env of isolate Du172.17 (clade C) (HIV)
procedure-details: cell-based or functional assay
experimental-readout: IC50 (µg/ml) with constrains (µg/mL)
Answers are plain numbers, in µg/mL.

Answered examples (3):
ePGDM9 (antibody, V domains shown) VH: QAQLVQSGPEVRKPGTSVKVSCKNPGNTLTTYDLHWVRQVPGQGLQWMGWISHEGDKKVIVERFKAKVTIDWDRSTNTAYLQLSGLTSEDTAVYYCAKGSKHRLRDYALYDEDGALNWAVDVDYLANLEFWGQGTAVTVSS VL: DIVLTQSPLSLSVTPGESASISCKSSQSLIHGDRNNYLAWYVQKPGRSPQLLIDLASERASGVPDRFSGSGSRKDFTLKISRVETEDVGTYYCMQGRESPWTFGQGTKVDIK :: 0.865
ePGDM5 (antibody, V domains shown) VH: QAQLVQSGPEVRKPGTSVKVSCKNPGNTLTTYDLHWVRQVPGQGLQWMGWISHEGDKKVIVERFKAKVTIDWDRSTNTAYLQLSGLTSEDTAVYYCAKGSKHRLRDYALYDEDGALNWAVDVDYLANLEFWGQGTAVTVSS VL: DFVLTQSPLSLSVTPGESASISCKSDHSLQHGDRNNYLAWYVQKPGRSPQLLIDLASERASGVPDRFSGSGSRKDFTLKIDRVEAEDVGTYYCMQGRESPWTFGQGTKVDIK :: 1.49
ePGDM13 (antibody, V domains shown) VH: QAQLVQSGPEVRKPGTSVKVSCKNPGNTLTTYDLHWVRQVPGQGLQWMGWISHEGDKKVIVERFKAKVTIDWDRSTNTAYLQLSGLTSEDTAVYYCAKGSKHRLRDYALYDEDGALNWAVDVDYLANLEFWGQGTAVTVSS VL: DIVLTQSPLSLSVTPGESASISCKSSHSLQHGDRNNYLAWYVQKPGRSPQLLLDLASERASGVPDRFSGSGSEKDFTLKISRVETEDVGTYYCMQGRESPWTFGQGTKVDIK :: 1.5

Lab note: measured IC50 (µg/ml) with constrains of PGDM1400 (antibody, V domains shown) VH: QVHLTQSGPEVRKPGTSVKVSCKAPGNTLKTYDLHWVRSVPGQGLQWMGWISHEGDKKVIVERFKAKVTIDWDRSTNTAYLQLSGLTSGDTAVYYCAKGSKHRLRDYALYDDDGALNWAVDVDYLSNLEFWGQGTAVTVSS VL: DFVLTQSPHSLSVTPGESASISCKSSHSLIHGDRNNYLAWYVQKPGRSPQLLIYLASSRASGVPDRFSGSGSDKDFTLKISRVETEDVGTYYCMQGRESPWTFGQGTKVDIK was 5.42

The reported numbers originate from patent US20230134571A1.
